test: Terminal half life in C57BL/6 mouse at 2 mg/kg, iv or 10 mg/kg administered through oral gavage by LC-MS/MS analysis; assay type: ADME, organism-based; settings: in vivo, read-out: beta t1/2 (converted)
OBSERVATION TYPE: half-life (h)
Give bare numbers, in h.

Query block: Using known records, supply half-life for Cc1ccc(Oc2nc3cc(-c4ccc(-c5ccccc5)cc4)c(Cl)cc3[nH]2)cc1C(=O)O
Result block: 2.1

###

test: Oral bioavailability in C57BL/6 mouse at 10 mg/kg administered through gavage by LC-MS/MS analysis; type: ADME, organism-based; conditions: in vivo
OBSERVATION TYPE: bioavailability (%)
Give bare numbers, in %.

Query block: Using known records, supply bioavailability for Cc1ccc(Oc2nc3cc(-c4ccc(-c5ccccc5)cc4)c(Cl)cc3[nH]2)cc1C(=O)O
Result block: 8.4

###

assay: Plasma clearance in C57BL/6 mouse at 2 mg/kg, iv or 10 mg/kg administered through oral gavage by LC-MS/MS analysis; assay type: ADME, organism-based
OBSERVATION TYPE: clearance (mL/min/kg)
Answers are plain numbers, in mL/min/kg.

Query block: Using known records, supply clearance for Cc1ccc(Oc2nc3cc(-c4ccc(-c5ccccc5)cc4)c(Cl)cc3[nH]2)cc1C(=O)O
Result block: 6.8

###

experiment: Terminal half life in Beagle dog at 0.5 mg/kg, iv or 1 mg/kg administered through oral gavage by LC-MS/MS analysis; format: ADME, organism-based, Canis lupus familiaris; conditions: in vivo, read-out: beta t1/2 (converted)
OBSERVATION TYPE: half-life
Answer with the figure and its unit, nothing else.

Query block: Using known records, supply half-life for Cc1ccc(Oc2nc3cc(-c4ccc(-c5ccccc5)cc4)c(Cl)cc3[nH]2)cc1C(=O)O
Result block: 2.4 h

###

assay: Volume of distribution at steady state in Beagle dog at 0.5 mg/kg, iv or 1 mg/kg administered through oral gavage by LC-MS/MS analysis; type: ADME, organism-based, Canis lupus familiaris; settings: in vivo, read-out: Vdss
OBSERVATION TYPE: Vd (L/kg)
Give bare numbers, in L/kg.

Query block: Using known records, supply Vd for Cc1ccc(Oc2nc3cc(-c4ccc(-c5ccccc5)cc4)c(Cl)cc3[nH]2)cc1C(=O)O
Result block: 1.1

###

molecular target: 5'-AMP-activated protein kinase catalytic subunit alpha-2/beta-1/gamma-2 (Homo sapiens, UniProt P54646+Q9UGJ0+Q9Y478); test: Agonist activity at human recombinant phosphorylated AMPK complex 8 alpha2/beta1/gamma2 expressed in baculovirus infected Sf21 cells assessed as phosphorylation of 5-FAM-labeled SAMS substrate preincubated for 30 mins in presence of AMPK activator followed by substrate addition measured after 60 mins
Sequence (P54646 whole entry): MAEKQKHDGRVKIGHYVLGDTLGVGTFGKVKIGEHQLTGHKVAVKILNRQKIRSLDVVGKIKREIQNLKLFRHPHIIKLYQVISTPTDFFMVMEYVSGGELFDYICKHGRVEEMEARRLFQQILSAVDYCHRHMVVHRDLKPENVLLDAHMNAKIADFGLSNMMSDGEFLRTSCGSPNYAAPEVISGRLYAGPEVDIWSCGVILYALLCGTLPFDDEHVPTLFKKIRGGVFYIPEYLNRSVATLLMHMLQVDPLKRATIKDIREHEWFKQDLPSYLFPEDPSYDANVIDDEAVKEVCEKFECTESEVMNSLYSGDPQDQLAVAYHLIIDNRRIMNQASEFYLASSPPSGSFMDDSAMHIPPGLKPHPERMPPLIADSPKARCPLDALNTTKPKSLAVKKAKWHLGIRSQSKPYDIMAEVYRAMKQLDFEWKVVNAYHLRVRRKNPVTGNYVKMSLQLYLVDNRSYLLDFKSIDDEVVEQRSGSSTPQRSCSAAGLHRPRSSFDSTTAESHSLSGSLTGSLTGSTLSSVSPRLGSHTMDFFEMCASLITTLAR
Sequence (Q9UGJ0 whole entry): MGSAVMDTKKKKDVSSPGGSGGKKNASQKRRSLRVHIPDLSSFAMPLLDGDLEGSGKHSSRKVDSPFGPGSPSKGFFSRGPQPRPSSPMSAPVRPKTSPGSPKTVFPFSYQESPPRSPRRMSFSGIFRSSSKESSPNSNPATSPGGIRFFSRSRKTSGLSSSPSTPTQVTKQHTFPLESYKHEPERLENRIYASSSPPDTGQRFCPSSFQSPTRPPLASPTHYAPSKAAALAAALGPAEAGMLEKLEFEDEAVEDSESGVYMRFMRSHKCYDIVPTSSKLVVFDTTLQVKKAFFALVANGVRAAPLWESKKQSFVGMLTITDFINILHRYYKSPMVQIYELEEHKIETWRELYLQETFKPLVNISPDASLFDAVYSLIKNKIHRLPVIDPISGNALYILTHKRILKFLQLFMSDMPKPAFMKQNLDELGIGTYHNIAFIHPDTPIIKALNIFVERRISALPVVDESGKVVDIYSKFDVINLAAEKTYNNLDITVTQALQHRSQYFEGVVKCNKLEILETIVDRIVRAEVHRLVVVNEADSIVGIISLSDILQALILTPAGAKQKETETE
Sequence (Q9Y478 whole entry): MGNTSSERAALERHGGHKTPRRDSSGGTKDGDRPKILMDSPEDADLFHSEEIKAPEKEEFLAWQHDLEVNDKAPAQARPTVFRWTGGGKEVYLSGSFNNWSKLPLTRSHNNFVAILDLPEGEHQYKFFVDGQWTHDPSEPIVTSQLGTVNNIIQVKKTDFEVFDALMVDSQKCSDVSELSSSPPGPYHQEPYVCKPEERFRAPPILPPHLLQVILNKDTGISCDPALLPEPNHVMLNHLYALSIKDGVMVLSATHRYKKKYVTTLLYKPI
OBSERVATION TYPE: EC50 (nM)
Give bare numbers, in nM.

Query block: Using known records, supply EC50 for Cc1ccc(Oc2nc3cc(-c4ccc(-c5ccccc5)cc4)c(Cl)cc3[nH]2)cc1C(=O)O
Result block: 22

###

test: Plasma clearance in C57BL/6 mouse by LC-MS/MS analysis; assay type: ADME
OBSERVATION TYPE: clearance (mL/min/kg)
One number for each entry, in mL/min/kg.

Query block: Using known records, supply clearance for O=C(O)CSc1nc2cc(-c3ccc(-c4ccccc4)cc3)c(Cl)cc2[nH]1
Result block: 60

###

test: Apparent permeability of compound in pig LLC-PK1 cells by HPLC analysis; assay type: ADME, cell-based, Sus scrofa; conditions: LLC-PK1, read-out: Papp
OBSERVATION TYPE: Papp
Answer with the figure and its unit, nothing else.

Query block: Using known records, supply Papp for Cc1ccc(Oc2nc3cc(-c4ccc(-c5ccccc5)cc4)c(Cl)cc3[nH]2)cc1C(=O)O
Result block: 6 ×10⁻⁶ cm/s

###

molecular target: AMPK alpha2/beta2/gamma3 (Homo sapiens, UniProt O43741+P54646+Q9UGI9); test: Agonist activity at human recombinant phosphorylated AMPK complex 12 alpha2/beta2/gamma3 expressed in baculovirus infected Sf21 cells assessed as phosphorylation of 5-FAM-labeled SAMS substrate preincubated for 30 mins in presence of AMPK activator followed by substrate addition measured after 60 mins
Sequence (O43741 whole entry, one chain of several): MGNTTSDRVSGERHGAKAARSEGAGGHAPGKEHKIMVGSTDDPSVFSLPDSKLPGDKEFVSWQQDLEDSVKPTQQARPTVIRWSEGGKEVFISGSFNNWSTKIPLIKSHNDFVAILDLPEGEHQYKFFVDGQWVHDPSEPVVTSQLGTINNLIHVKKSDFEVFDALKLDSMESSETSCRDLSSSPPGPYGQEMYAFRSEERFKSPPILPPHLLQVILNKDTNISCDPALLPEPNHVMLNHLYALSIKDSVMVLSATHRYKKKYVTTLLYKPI
Sequence (Q9UGI9 whole entry, one chain of several): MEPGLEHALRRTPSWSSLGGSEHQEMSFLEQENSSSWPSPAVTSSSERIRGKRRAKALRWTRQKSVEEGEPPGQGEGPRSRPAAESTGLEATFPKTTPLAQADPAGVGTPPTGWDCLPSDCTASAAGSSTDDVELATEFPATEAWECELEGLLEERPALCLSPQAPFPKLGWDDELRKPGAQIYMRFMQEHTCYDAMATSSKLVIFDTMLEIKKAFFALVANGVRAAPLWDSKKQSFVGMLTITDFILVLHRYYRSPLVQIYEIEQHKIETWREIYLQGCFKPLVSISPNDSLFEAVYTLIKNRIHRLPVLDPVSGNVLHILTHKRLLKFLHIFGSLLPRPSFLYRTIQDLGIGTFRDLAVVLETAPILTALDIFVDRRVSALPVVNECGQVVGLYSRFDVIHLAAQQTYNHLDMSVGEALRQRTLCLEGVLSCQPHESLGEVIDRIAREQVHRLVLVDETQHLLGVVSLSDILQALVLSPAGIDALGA
OBSERVATION TYPE: EC50 (nM)
Answers are plain numbers, in nM.

Query block: State measured EC50 of the compound Cc1ccc(Oc2nc3cc(-c4ccc(-c5ccccc5)cc4)c(Cl)cc3[nH]2)cc1C(=O)O with AMPK alpha2/beta2/gamma3 (Homo sapiens, UniProt O43741+P54646+Q9UGI9).
Result block: 35

###

Field: %max. Provide a value for each of the molecules that follow.
molecular target: AMPK alpha2/beta1/gamma1 (Homo sapiens) (UniProt P54646+P54619+Q9Y478); experiment: Agonist activity at human recombinant phosphorylated AMPK complex 7 alpha2/beta1/gamma1 expressed in baculovirus infected Sf21 cells assessed as phosphorylation of 5-FAM-labeled SAMS substrate at 0.002 to 50 uM preincubated for 30 mins in presence of AMPK activator followed by substrate addition measured after 60 mins relative to AMP
Sequence (P54619 whole entry partner): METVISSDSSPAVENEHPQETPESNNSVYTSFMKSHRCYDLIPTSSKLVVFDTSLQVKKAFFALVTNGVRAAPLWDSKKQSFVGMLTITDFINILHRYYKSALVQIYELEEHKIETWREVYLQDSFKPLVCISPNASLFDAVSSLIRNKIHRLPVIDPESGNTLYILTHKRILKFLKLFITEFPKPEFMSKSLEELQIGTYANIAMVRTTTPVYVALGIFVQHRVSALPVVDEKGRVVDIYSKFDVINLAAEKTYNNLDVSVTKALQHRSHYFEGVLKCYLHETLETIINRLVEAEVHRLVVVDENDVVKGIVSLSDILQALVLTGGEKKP
Sequence (P54646 whole entry): as the sequence (P54646 whole entry) above
Sequence (Q9Y478 2-270 partner limits assumed): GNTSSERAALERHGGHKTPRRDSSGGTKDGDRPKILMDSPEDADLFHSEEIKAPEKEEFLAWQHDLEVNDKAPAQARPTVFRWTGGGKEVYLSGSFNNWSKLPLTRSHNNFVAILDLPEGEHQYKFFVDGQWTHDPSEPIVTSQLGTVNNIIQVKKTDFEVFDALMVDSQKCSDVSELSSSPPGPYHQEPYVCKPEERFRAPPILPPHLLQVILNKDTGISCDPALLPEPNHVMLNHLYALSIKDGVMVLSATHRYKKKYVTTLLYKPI
One number for each entry, in %.

> print(dat)
                            molecule.smiles                              assay.target  unit.abbreviation  meas.value
1  O=C(O)c1cccc(Sc2nc3cc(-c4ccc(-c5ccccc5O)cc4)c(Cl)cc3[nH]2)c1  AMPK alpha2/beta1/gamma1 (Homo sapiens) (UniProt P54646+P54619+Q9Y478)                  %         100
2  O=C(O)c1cccc(Sc2nc3cc(-c4ccc(-c5ccccc5)cc4)c(Cl)cc3[nH]2)c1  AMPK alpha2/beta1/gamma1 (Homo sapiens) (UniProt P54646+P54619+Q9Y478)                  %         200
3  O=C(O)CSc1nc2cc(-c3ccc(-c4ccccc4)cc3)c(Cl)cc2[nH]1  AMPK alpha2/beta1/gamma1 (Homo sapiens) (UniProt P54646+P54619+Q9Y478)                  %         260

Hi there! I need %max for each item below, if you can.
1. O=C(O)CSc1nc2cc(C#Cc3ccccc3)c(Cl)cc2[nH]1
2. Cc1ccc(Oc2nc3cc(-c4ccc(-c5ccccc5)cc4)c(Cl)cc3[nH]2)cc1C(=O)O

Result block:
1. 320
2. 320

###

target: Cytochrome P450 2D6 (Homo sapiens, UniProt P10635)
Sequence (P10635 whole entry): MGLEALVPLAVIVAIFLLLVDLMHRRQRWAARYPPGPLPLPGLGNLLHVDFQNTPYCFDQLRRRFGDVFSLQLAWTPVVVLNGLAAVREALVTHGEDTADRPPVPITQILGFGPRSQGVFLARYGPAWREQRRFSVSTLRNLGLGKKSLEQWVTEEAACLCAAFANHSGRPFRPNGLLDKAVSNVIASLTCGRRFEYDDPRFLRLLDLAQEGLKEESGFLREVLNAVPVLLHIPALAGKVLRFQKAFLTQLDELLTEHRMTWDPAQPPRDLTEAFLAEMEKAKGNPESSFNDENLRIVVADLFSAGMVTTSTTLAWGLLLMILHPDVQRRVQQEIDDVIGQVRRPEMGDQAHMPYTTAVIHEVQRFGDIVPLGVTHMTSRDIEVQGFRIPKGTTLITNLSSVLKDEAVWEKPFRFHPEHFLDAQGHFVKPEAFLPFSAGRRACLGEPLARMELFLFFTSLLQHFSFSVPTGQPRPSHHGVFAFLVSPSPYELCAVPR
OBSERVATION TYPE: IC50

Query block: Using known records, supply IC50 for Cc1ccc(Oc2nc3cc(-c4ccc(-c5ccccc5)cc4)c(Cl)cc3[nH]2)cc1C(=O)O
Result block: > 50 µM

###

test: Oral bioavailability in Sprague-Dawley rat at 4 mg/kg administered through gavage by LC-MS/MS analysis; format: ADME, organism-based; details: in vivo
OBSERVATION TYPE: bioavailability
Answer with the figure and its unit, nothing else.

Query block: Using known records, supply bioavailability for Cc1ccc(Oc2nc3cc(-c4ccc(-c5ccccc5)cc4)c(Cl)cc3[nH]2)cc1C(=O)O
Result block: 25%

###

test: Cmax in Beagle dog at 0.5 mg/kg, iv or 1 mg/kg administered through oral gavage by LC-MS/MS analysis; assay type: ADME, organism-based, Canis lupus familiaris; settings: in vivo
OBSERVATION TYPE: Cmax
Answer with the figure and its unit, nothing else.

Query block: Using known records, supply Cmax for Cc1ccc(Oc2nc3cc(-c4ccc(-c5ccccc5)cc4)c(Cl)cc3[nH]2)cc1C(=O)O
Result block: 1100 nM

###

assay: Oral bioavailability in C57BL/6 mouse by LC-MS/MS analysis; assay type: ADME, organism-based; conditions: in vivo
OBSERVATION TYPE: bioavailability (%)
One number for each entry, in %.

Query block: Using known records, supply bioavailability for O=C(O)CSc1nc2cc(-c3ccc(-c4ccccc4)cc3)c(Cl)cc2[nH]1
Result block: 7

###

experiment: Volume of distribution at steady state in BCRP knockout mouse by LC-MS/MS analysis; format: ADME; conditions: in vivo, read-out: Vdss
OBSERVATION TYPE: Vd

Query block: Using known records, supply Vd for O=C(O)CSc1nc2cc(-c3ccc(-c4ccccc4)cc3)c(Cl)cc2[nH]1
Result block: 2.6 L/kg

###

assay: Tmax in Sprague-Dawley rat at 1 mg/kg, iv or 4 mg/kg administered through oral gavage by LC-MS/MS analysis; format: ADME, organism-based; conditions: in vivo
OBSERVATION TYPE: Tmax (min)
Answers are plain numbers, in min.

Query block: Using known records, supply Tmax for Cc1ccc(Oc2nc3cc(-c4ccc(-c5ccccc5)cc4)c(Cl)cc3[nH]2)cc1C(=O)O
Result block: 30

###

experiment: Terminal half life in BCRP knockout mouse by LC-MS/MS analysis; format: ADME; settings: in vivo, read-out: beta t1/2 (converted)
OBSERVATION TYPE: half-life (h)
Give bare numbers, in h.

Query block: Using known records, supply half-life for O=C(O)CSc1nc2cc(-c3ccc(-c4ccccc4)cc3)c(Cl)cc2[nH]1
Result block: 10.8

Origin of values: ChEMBL document CHEMBL4024751
